For each of the molecules below, state its Cas9 with SSAP activity (normalized).
Test system: gene editing with Cas9
assay details: Screen of 322 new SSAP proteins, gene editing activity with Cas9 (Table 5)
Format: cell-based
condition info: normalized
# respond with the number and nothing more

I am curious: what Cas9 with SSAP activity (normalized) value has been reported for SSAP_212: SEQ ID NO: 381; Streptomyces sp. NRRL S-1824 (protein, listed as Streptomyces sp.) SEISNAIATRDQGPAAQIEAYRDEYAALVPSHINVDQWVRLAAGAIRGNEDLMEAARNDIGVFLRELKTAARLGLEPGTEQFYLTARKSKAHGYALIIKGIVGYQGIVELIYRAGAVSSVIVEAVRANDTFSYVPGRDDRPIHEIDWFGGDRGPLVGVYAYAVMKDGAVSKVVVMNHKRVMEIKARSDSKNSQYSPWNTDEESMWLKSAIRQLAKWVPTSAEYKSEQLRAHAEAIGELASVASAPLPPQPSVLDDVDPDDEGPIEGELVD ? 0.210

Item under review: SSAP_295: SEQ ID NO: 464; Pseudoalteromonas (multispecies) (protein, listed as Pseudoalteromonas sp.) SLSLQEYQNLLYGKLTACKGQFDACLSENGYKLDFNTELNYVYQIVMSGLNVEYSFPYTPVESVITSFLKAAKIGLSLCPTEQLCFLKTEYSESSGQYVTQLGLGYKGILKLAYRSGKVKQINANVFYEKDNFQYNGVNSKVTHTTTVLSKAMRGQLAGGYCQTELIDGSFKTTVMPPEEILAIEEQGKAMGNEAWLSVHVDQMREKTLIKRHWKTLCPCIYRDSVMNDPMLFDDQDCQHSSNQQAYEEQFESAYSREAY . Reported Cas9 with SSAP activity (normalized)? −0.343

Please look up its Cas9 with SSAP activity (normalized): SSAP_241: SEQ ID NO: 410; Antribacter gilvus (protein, listed as Antribacter gilvus) SADVVIRQHATELTSVLPSHLAEKGDGWLNAAVAAVRKDRNLWNAANSDPGAVMNALAEAARLGLQPGSKEYYLTVRGGKVLGIVGYQGEIELMYRAGAVSSVIVEPVFERDGFEYTPGVDDRPKHRIDWDADDRGPIRLAYAYAVMKDGAVSKVVVVNKTRIRRAKDASATAGKSHSPWTSDEVAMWMKTAAHDLAKWVPTSAEYIREQLRAVKEVEAEPARASDPRPEPVHIVEAQILDEDPFPNAPEDGAA −3.561

Name the recorded Cas9 with SSAP activity (normalized) for SSAP_302: SEQ ID NO: 471; Clostridium saccharobutylicum (protein, listed as Clostridium saccharobutylicum) ATNSSLKNQLIEKEQTTVNVQETMFKNLINSDDVKSKFTEVLKDKAIQYINSIINLVNSDKDLIECEPKSIIDACMSAVSLDLSVDKNLEYVEIIPYKKKANFQLGYRGYIQLLLRTGEYKSVNIIEVYEGQLKSWNQLAEEFDIDFTYKKSDAVIGYAGYFEMLNGFRKSVYWSKENMDALRENSFKSDTRWNNDYKAMAKRAVIRNMISKWGSLSIEMEKAYCEDLNTDKFVNGN . −0.289
